# target_system: dopamine receptors (limbic D2) (Rattus norvegicus, UniProt P61169)
# Construct: from tissue
# Sequence (P61169 whole entry): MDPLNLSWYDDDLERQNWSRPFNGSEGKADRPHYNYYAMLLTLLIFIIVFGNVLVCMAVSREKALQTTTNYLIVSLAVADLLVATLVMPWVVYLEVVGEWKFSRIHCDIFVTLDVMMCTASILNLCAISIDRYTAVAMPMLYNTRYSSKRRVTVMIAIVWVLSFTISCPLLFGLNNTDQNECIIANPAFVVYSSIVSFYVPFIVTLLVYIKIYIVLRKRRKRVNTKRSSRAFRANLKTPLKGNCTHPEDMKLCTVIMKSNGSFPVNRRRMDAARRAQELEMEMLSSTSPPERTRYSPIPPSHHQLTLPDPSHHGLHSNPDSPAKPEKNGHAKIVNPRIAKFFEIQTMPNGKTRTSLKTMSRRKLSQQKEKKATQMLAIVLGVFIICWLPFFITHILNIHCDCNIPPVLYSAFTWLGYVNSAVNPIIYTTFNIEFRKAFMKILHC
# experimental_details: limbic (accumbens) D2 binding, 3H-spiroperidol
# experimental_setup: limbic brain tissue
reported_endpoint: inhibition at 1 µM (%)
One number for each entry, in %.

Answered examples (3):
{"compound": "[O-][N+]1(CCCc2cccnc2)CCc2[nH]c3ccc(F)cc3c2C1 (stereo not shown) [C]", "inhibition at 1 µM / %": 0}
{"compound": "[O-][n+]1cccc(CCCN2CCc3[nH]c4ccc(F)cc4c3C2)c1 [D]", "inhibition at 1 µM / %": 66}
{"compound": "Fc1ccc2[nH]c3c(c2c1)CN(CCCc1cccnc1)CC3 [A, reference compound]", "inhibition at 1 µM / %": 93}

Okay, next one:
# query: inhibition at 1 µM of entry [O-][n+]1cccc(CCC[N+]2([O-])CCc3[nH]c4ccc(F)cc4c3C2)c1 (stereo not shown) [B] 4
